# Tested On: SARM1 (Homo sapiens (Human), UniProt Q6SZW1)
# Sequence (Q6SZW1 other isoform, or with tags, fused parts or gaps): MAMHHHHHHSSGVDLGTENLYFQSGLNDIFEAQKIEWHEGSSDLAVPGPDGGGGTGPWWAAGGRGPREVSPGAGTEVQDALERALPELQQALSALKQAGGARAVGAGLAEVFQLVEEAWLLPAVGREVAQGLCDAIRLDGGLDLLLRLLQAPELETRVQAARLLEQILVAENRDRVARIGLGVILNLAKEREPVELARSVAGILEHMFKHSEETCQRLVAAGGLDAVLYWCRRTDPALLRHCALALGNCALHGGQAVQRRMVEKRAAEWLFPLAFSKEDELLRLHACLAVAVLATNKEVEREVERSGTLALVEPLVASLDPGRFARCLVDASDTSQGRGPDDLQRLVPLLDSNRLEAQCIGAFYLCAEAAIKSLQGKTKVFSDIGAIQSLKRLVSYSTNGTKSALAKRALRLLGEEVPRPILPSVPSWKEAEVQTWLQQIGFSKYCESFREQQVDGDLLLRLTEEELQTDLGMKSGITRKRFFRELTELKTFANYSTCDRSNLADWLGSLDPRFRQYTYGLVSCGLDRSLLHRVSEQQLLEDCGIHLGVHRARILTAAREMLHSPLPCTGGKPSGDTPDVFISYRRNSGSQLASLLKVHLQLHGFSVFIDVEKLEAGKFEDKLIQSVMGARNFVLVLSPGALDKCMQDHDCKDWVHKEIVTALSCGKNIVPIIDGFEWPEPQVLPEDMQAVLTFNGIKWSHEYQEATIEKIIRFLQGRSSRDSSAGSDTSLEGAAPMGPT
# Experiment: ARM-SAM-TIR SARM1 IC50 assay (NADase activity, NAD+ cleavage)
# Condition Summary: ARM-SAM-TIR lysate 5 μg/mL, 2 h pre-incubation, 5 μM NAD+, RapidFire MS readout
Entries and their IC50

*Q* # lookup: IC50 of Clc1ccc(CCc2n[nH]c3cc(-c4ccncc4)ccc23)cn1 [Compound I-2]
*A* 101 to 500 nM

---
*Q* For the compound shown here, Clc1ccc(CCc2n[nH]c3cc(-c4ccncc4)ccc23)cc1 [Compound I-1] , give the reported IC50.
*A* 101 to 500 nM
